Would you kindly list GI50 for each of these compounds?
system: CCRF-CEM; experiment: NCI tumour cell line growth inhibition, 48 h
Activity calls are given as the source filed them. No stated cut-off is given here; in the data, active = GI50 up to about 1.1 µM and inactive = higher.

Q. Please give the measured GI50 for this compound: COc1cccc2c1C(=O)c1c(O)c3c(c(O)c1C2=O)C[C@@](O)(C(C)=O)C[C@@H]3OC1CC([N+]([O-])(Cc2ccccc2)Cc2ccccc2)C(O)C(C)O1 (stereo not given in full)
A. 0.399 µM (active)

Q. Please give the measured GI50 for this compound: "CNC(=S)N/N=C/c1ccc([N+](=O)[O-])s1"
A. > 10 µM (inactive)

Q. Please give the measured GI50 for this compound: "CCCCCCCCCCCCCC/C(C(=O)OC)=C(/O)C(=O)OCC"
A. 42.5 µM (inactive)

Q. Please give the measured GI50 for this compound: NC(Cc1ncccn1)C(=O)O (stereo not given)
A. > 100 µM (inactive)

Q. Please give the measured GI50 for this compound: C=CCC1(OCc2ccccc2)C(=O)C(=O)OC1C1COC(C)(C)O1 (stereo not given)
A. > 100 µM (inactive)

Q. Please give the measured GI50 for this compound: "Cc1cc(C)c(S(=O)(=O)N(CCCN)OCCCN)c(C)c1"
A. > 100 µM (inactive)

Q. Please give the measured GI50 for this compound: "c1ccc2c3nnc(c2c1)SCCCSc1nnc(c2ccccc12)SCCCS3"
A. > 100 µM (inactive)

Q. Please give the measured GI50 for this compound: "Cc1cc(N(CCC#N)CCC#N)ccc1/C=C1/N=C(c2ccccc2)N(N)C1=O"
A. 61.7 µM (inactive)

Q. Please give the measured GI50 for this compound: "O=C(O)C(F)(F)C(F)(F)C(F)(F)C(F)(F)C(=O)O"
A. > 100 µM (inactive)

Q. Please give the measured GI50 for this compound: "COc1ccc(/C=C2\C(=O)N(NC(C)=O)c3ccccc32)cc1"
A. 49.7 µM (inactive)

----------
tested on: UACC-257; test: NCI tumour cell line growth inhibition, 48 h
Active and inactive are the calls of the source. Rule as the data show it: active = GI50 up to about 1.1 µM and inactive = higher.
Property: GI50

Q. Please give the measured GI50 for this molecule: "Clc1ccc(C[P+](c2ccccc2)(c2ccccc2)c2ccccc2)cc1Cl"
A. 2.14 µM (inactive)

Q. Please give the measured GI50 for this molecule: COc1cc2oc3cc(=O)cc4oc(-c5ccccc5)cc(c2c2c1CCC(c1ccccc1)O2)c43 (stereo unspecified)
A. 26.7 µM (inactive)

Q. Please give the measured GI50 for this molecule: O=C(CC(C(=O)O)N1CCOCC1)c1ccccc1 (stereo unspecified)
A. 13.4 µM (inactive)

Q. Please give the measured GI50 for this molecule: C=C(C=O)[C@@H]1C2OC(=O)C(=C)[C@@H]2CC(O)[C@@]1(C)CC (stereo partly specified)
A. 11.9 µM (inactive)

Q. Please give the measured GI50 for this molecule: "CC1(C)COC(c2ccc(C(=O)c3ccc(Cl)cc3)cc2)=N1"
A. 10.7 µM (inactive)

Q. Please give the measured GI50 for this molecule: "CCCCCCCCCCCCCC/C(C(=O)OC)=C(/O)C(=O)OCC"
A. 63.5 µM (inactive)

----------
Would you kindly list GI50 for each of these compounds?
tested on: 786-0; assay: NCI tumour cell line growth inhibition, 48 h
The source made the active and inactive calls. Rule as the data show it: active = GI50 up to about 1.1 µM and inactive = higher.

Q. Please give the measured GI50 for this compound: C=C1C(=O)O[C@H]2C3C(=C(C)CC[C@@H]12)C(=O)[C@@H]1OC31C (stereo not given in full)
A. 1.86 µM (inactive)

Q. Please give the measured GI50 for this compound: COc1ccc(C2c3cc4c(cc3OC(N3CCOCC3)C2C)OCO4)cc1 (stereo not given)
A. 23.8 µM (inactive)

Q. Please give the measured GI50 for this compound: "S=C(Nc1ccccc1)N(Cc1ccccc1)c1ccccc1"
A. 74.3 µM (inactive)

Q. Please give the measured GI50 for this compound: "O/N=N/c1ccc([SH2]c2ccc3ccccc3c2)cn1"
A. 31.3 µM (inactive)

Q. Please give the measured GI50 for this compound: CC(C)(C)OC(=O)NCC(=O)NC1CC=CCC1NC(=O)CNC(=O)OC(C)(C)C (stereo not given)
A. > 100 µM (inactive)

Q. Please give the measured GI50 for this compound: COC(=O)C(C(=O)OC)C1CCCC(=O)C1 (stereo not given)
A. > 100 µM (inactive)

Q. Please give the measured GI50 for this compound: "CC1=C(c2cc(C(=O)Nc3ccc(Cl)cc3)nc(S)n2)Sc2ccccc2N1"
A. > 100 µM (inactive)

Q. Please give the measured GI50 for this compound: "Cc1cc(C)nc(NS(=O)(=O)c2ccc(NC(=O)c3cccc4c(=O)c5ccccc5[nH]c34)cc2)n1"
A. 18.7 µM (inactive)

Q. Please give the measured GI50 for this compound: "Nc1c(-c2ccc(Cl)cc2)[n+]([O-])c2ccccc2[n+]1[O-]"
A. > 100 µM (inactive)

Q. Please give the measured GI50 for this compound: "N#C/C(=C\c1ccc(F)cc1)c1nc(-c2cc3ccccc3oc2=O)cs1"
A. 14.8 µM (inactive)
